- Target System: Tyrosine-protein kinase Fyn (Homo sapiens)
- Test Context: at 1 µM
- Description: GSK_PKIS: FYN mean inhibition at 1 uM [Nanosyn]
Property: inhibition (%)
Reply with just the number (in %).

Below, each entry is followed by its recorded inhibition result.
# Input Smiles, inhibition (%)
rows = [
    ("CCOc1ccc2c(-c3ccnc(Nc4cccc(C(F)(F)F)c4)n3)cnn2n1", 4.94),
    ("CNC(=O)c1cccc(C#Cc2cncnc2Nc2ccc(OCc3cccc(F)c3)c(Cl)c2)c1", 5.06),
    ("CCc1nn2ncccc2c1-c1ccnc(NC2CC2)n1", 5.07),
]

Enquiry: Query inhibition on Tyrosine-protein kinase Fyn (Homo sapiens) for CS(=O)(=O)CCNCc1ccc(-c2ccc3ncnc(Nc4ccc(OCc5ccccc5)c(C(F)(F)F)c4)c3c2)o1
Return: 4.69

Enquiry: Query inhibition on Tyrosine-protein kinase Fyn (Homo sapiens) for COc1ccc(-c2oc3ncnc(N)c3c2-c2ccc(NC(=O)Nc3cc(C(F)(F)F)ccc3F)cc2)cc1
Return: 52.1

Enquiry: Query inhibition on Tyrosine-protein kinase Fyn (Homo sapiens) for COc1cc2ncn(-c3cc(OCc4ccccc4C(F)(F)F)c(C(=O)N(C)C)s3)c2cc1OC
Return: 8.11

Enquiry: Query inhibition on Tyrosine-protein kinase Fyn (Homo sapiens) for CNC(=O)c1cc(-c2ccc(F)cc2)cc(-c2ccc(S(=O)(=O)N3CCCC3)cc2)c1N
Return: 5.48

Enquiry: Query inhibition on Tyrosine-protein kinase Fyn (Homo sapiens) for CCCN(CCS(C)(=O)=O)Cc1ccc(-c2ccc3ncnc(Nc4ccc(OCc5cccc(F)c5)c(Cl)c4)c3c2)o1
Return: 2.14

Enquiry: Query inhibition on Tyrosine-protein kinase Fyn (Homo sapiens) for CN1CCC(n2cnc(-c3ccc(F)cc3)c2-c2ccnc(Nc3ccccc3)n2)CC1
Return: 8.11

Enquiry: Query inhibition on Tyrosine-protein kinase Fyn (Homo sapiens) for CCN1CCC(CC(=O)Nc2n[nH]c3nnc(-c4cccc(F)c4F)cc23)CC1
Return: 3.55

Enquiry: Query inhibition on Tyrosine-protein kinase Fyn (Homo sapiens) for Fc1ccc(-c2cc(-c3c[nH]nc3-c3ccccn3)ccn2)cc1
Return: 5

Enquiry: Query inhibition on Tyrosine-protein kinase Fyn (Homo sapiens) for CC(C)COC(=O)c1ccc2c(c1)/C(=C/Nc1ccc(S(N)(=O)=O)cc1)C(=O)N2
Return: 71.6

Enquiry: Query inhibition on Tyrosine-protein kinase Fyn (Homo sapiens) for O=C(Nc1n[nH]c2cc(-c3ccc(F)cc3)ccc12)C1CC1
Return: 3.69

Enquiry: Query inhibition on Tyrosine-protein kinase Fyn (Homo sapiens) for COc1ccc(-c2nn3ncccc3c2-c2ccnc(Nc3ccc4c(c3)OCCO4)n2)cc1
Return: 36.6

* * *

- Target System: Tyrosine-protein kinase BTK (Homo sapiens) (UniProt Q06187);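 further: values are mean percent inhibition of BTK across replicate measurements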
- Sequence (Q06187 whole entry): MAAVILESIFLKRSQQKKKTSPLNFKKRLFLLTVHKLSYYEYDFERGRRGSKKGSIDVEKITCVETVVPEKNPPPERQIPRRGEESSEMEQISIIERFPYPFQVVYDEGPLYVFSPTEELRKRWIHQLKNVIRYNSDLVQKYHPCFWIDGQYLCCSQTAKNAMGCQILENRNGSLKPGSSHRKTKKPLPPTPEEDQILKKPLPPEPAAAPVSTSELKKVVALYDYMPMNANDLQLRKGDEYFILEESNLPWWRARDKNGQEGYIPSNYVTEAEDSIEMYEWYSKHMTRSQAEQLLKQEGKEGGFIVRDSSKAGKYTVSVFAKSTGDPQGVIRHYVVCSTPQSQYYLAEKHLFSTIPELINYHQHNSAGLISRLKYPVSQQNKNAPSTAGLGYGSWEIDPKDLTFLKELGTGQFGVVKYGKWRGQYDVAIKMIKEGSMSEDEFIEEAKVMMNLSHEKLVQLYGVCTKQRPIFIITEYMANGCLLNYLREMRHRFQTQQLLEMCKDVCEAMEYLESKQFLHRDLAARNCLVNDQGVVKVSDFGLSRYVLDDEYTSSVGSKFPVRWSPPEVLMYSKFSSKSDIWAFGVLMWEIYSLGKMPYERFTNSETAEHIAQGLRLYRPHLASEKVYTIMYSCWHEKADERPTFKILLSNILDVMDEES
- Test Context: at 1 µM
Collected inhibition values appear next to each entry.
Reply with just the number (in %).

Below, each entry is followed by its recorded inhibition result.
# Compound, Unit Abbreviation, inhibition
rows = [
    ("CN(C)CCOc1ccc(-c2nc(-c3ccncc3)c(-c3ccc4c(c3)CC/C4=N\\O)[nH]2)cc1", "%", 1.19),
    ("CC1=C(C(=O)Nc2cc(Cl)c3[nH]ncc3c2)C(c2ccc(C(F)(F)F)cc2)CC(=O)N1 (stereo not drawn)", "%", 0.33),
]

Enquiry: Endpoint output: inhibition of O=S(=O)(CCNCc1ccc(-c2ccc3ncnc(Nc4ccc(OCc5cccc(F)c5)c(Cl)c4)c3c2)o1)c1ccccc1 . Value?
Return: 1.59
